# Test system: wheat (Triticum aestivum)
# assay.explanation: Test B pre-/postemergence plant response
# Type: in vivo
# run.parameters: Preemergence, 500 g ai/ha; 0 to 100 scale where 0 is no effect and 100 is complete control
value.type: Plant response rating, Wheat
Give the figure only, with no unit attached.

[
  {
    "molecule.smiles": "Cn1nc(C(F)(F)F)cc1-c1ccccc1Oc1ncc(Br)cn1",
    "Plant response rating, Wheat": 0
  },
  {
    "molecule.smiles": "O=[N+]([O-])c1cc(Cl)cnc1-c1ccccc1Oc1ncc(Cl)cn1",
    "Plant response rating, Wheat": 0
  },
  {
    "molecule.smiles": "Fc1cnc(Oc2ccccc2-c2cc(C(F)(F)F)on2)nc1",
    "Plant response rating, Wheat": 0
  }
]

Q. For `Cc1noc(C)c1-c1c(C#N)cccc1Oc1ncc(Cl)cn1` , what is its reported Plant response rating, Wheat?
A. 20

Q. For `Clc1ccc(-c2c(I)cccc2Oc2ncc(Cl)cn2)nc1` , what is its reported Plant response rating, Wheat?
A. 0

Q. For `FC(F)(F)c1ccc(-c2ccccc2Oc2ncc(Cl)cn2)cc1` , what is its reported Plant response rating, Wheat?
A. 0

Q. For `Cn1nc(C(F)(F)F)cc1-c1ccccc1Oc1ncc(Cl)cn1` , what is its reported Plant response rating, Wheat?
A. 0

Q. For `Clc1cnc(Oc2ccccc2-c2nccs2)nc1` , what is its reported Plant response rating, Wheat?
A. 0
